- ASSAY_DETAILS: AUC in po dosed mouse at 25 mg/kg by LC-MS/MS analysis
- Format: ADME, organism-based
- STATED_CONDITIONS: in vivo
READOUT_KIND: AUC (ng·h/mL)
Numeric answer only, unit ng·h/mL assumed.

## Task Hello, please tell me recorded AUC for this one: C[C@]1(O)C[C@@H](c2nc(-c3ccc4ccc(-c5ccccc5)nc4c3)c3c(N)nccn32)C1 [LINSITINIB]
## Result 26700

###

Listed here are molecules together with their documented pIC50.
- ASSAY_DETAILS: Binding affinity to [125I] radiolabelled Angiotensin-2 receptor in bovine adrenal cortex membrane
- Format: cell membranes, Bos taurus
Conceptually, pIC50 converts a concentration in mol/L into minus its log10.

{"columns": ["MOLECULE", "pIC50"],
 "data": [
  ["CCCc1nc(C)c(C(=O)O)n1Cc1ccc(-c2ccccc2-c2nn[nH]n2)cc1", 7.96],
  ["CCCc1nc(C(C)O)c(C(=O)O)n1Cc1ccc(-c2ccccc2-c2nn[nH]n2)cc1 (stereo unspecified)", 8.31],
  ["CCCc1nc(CO)c(C(=O)O)n1Cc1ccc(-c2ccccc2-c2nn[nH]n2)cc1", 8.16],
  ["CCCc1nc(CC)c(C(=O)O)n1Cc1ccc(-c2ccccc2-c2nn[nH]n2)cc1", 7.92],
  ["CCCc1nc(C(C)C)c(C(=O)O)n1Cc1ccc(-c2ccccc2-c2nn[nH]n2)cc1", 7.34]
]}

Next:
## Task Hello, please tell me recorded pIC50 for this one: CCCc1nc(C(C)(C)O)c(C(=O)O)n1Cc1ccc(-c2ccccc2-c2nnn[nH]2)cc1
## Result 8.09
